assay: Effect of concentration on the stability of the solution (purity over time); details: 10 wt %; in water at 25° C.
result_type: Purity at Day 14
Number first, unit second: that is the form wanted.

Solved cases below.
>>> df
                                   compound       result_type  meas_value
0  CCN(CC)CCOC(=O)C(C)c1ccc2oc(-c3ccc(Cl)cc3)nc2c1.Cl (stereo not shown)  Purity at Day 14       98.2%
1  CCN(CC)CCOC(=O)Cc1sc(-c2ccccc2)nc1-c1ccc(Cl)cc1.Cl  Purity at Day 14       98.3%
2  CCN(CC)CCOC(=O)Cc1ccc(C(=O)c2ccc(C)cc2)n1C.Cl  Purity at Day 14       97.3%

Reported Purity at Day 14 ( `CCN(CC)CCOC(=O)CCc1nc(-c2ccccc2)c(-c2ccccc2)o1.Cl` ) = 98.2%

Reported Purity at Day 14 ( `CCN(CC)CCOC(=O)Cc1c(C)n(C(=O)c2ccc(Cl)cc2)c2ccc(OC)cc12.Cl` ) = 98.2%

Reported Purity at Day 14 ( `CCN(CC)CCOC(=O)CCc1ccc2cc(OC)ccc2c1.Cl` ) = 98.2%

Reported Purity at Day 14 ( CCN(CC)CCOC(=O)CC1=C(C)C(=Cc2ccc([S+](C)[O-])cc2)c2ccc(F)cc21.Cl (stereo not shown) ) = 97.0%
